# Test system: Chikungunya virus (CHIKV)
# test.name: microbe, parasite or virus in culture
# Assay type: cell-based
# measurement.conditions: Chikungunya virus, Vero, 48 h, read-out: Percent viral inhibition CHKV
Classification field: rule met = inhibition at 1 µM at or over 20%; rule not met = inhibition at 1 µM under 20%.

# count of solved cases: 2
CNC(=O)NCC1CCN(Cc2cc(Oc3ccc(N4CCN(CCCS(C)(=O)=O)CC4)nc3)nc(-c3cc(Cl)cc(Cl)c3)c2)CC1 [Example 255] : rule not met
CN1CCN(c2ncc(Oc3cc(CN4CC[C@@H]5[C@H](CC4)[C@H]5C(=O)O)cc(-c4cc(Cl)cc(Cl)c4)n3)cn2)CC1 [Example 321] : rule met

Is inhibition at 1 µM at least 20%? Consider CC(=O)NCC1CCN(Cc2cc(Oc3ccc(N4CCN(CC(C)C(=O)O)CC4)nn3)nc(-c3cc(Cl)cc(Cl)c3)c2)CC1 (stereo not drawn) [Example 363] rule not met

Exam item: decide whether the reported inhibition at 1 µM for COC(=O)NCC1(F)CCN(Cc2cc(Oc3cnc(N4CCN(CCC(=O)O)CC4)nc3)nc(-c3cc(Cl)cc(Cl)c3)c2)CC1 [Example 51] is at least 20%. rule met

Does CC(=O)NCC1CCN(Cc2cc(Oc3ccc(N4CCN(CCO)CC4)nc3)nc(-c3cc(Cl)cc(Cl)c3)c2)CC1 [Example 180] have a reported inhibition at 1 µM of at least 20%? rule not met

Answer whether inhibition at 1 µM of CC(C)(O)CCN1CCN(c2ncc(Oc3cc(CN4CCC(CC(=O)O)CC4)cc(-c4cc(Cl)cc(Cl)c4)n3)cn2)CC1 [Example 279] is greater than or equal to 20%. rule met

====

# Tested on: Chikungunya virus (CHIKV)
# test.name: microbe, parasite or virus in culture
# Assay type: cell-based
# measurement.conditions: Chikungunya virus, Vero, 48 h, read-out: Percent viral inhibition CHKV
This listing pairs compounds with measured inhibition at 1 µM.

CS(=O)(=O)CCCN1CCN(c2ncc(Oc3cc(CN4CCC(CCC(=O)O)CC4)cc(-c4cc(Cl)cc(Cl)c4)n3)cn2)CC1 : 30.3%
CCN1CCN(c2ccc(Oc3cc(CN4CCC(CC(=O)O)CC4)cc(-c4cc(Cl)cc(Cl)c4)n3)nn2)CC1 : 20.4%
CN1CCN(c2ccc(Oc3cc(CN4CC[C@@H]5[C@H](CC4)[C@H]5C(=O)O)cc(-c4cc(Cl)cc(Cl)c4)n3)cn2)CC1 : 39.8%

Field inhibition at 1 µM (system: Chikungunya virus (CHIKV)) for entry CC(=O)NCC1CCN(Cc2cc(Oc3cnc(N4CCN(C)CC4)cn3)nc(-c3cc(Cl)cc(Cl)c3)c2)CC1 = 9.88%

====

# Test system: Chikungunya virus (CHIKV)
# test.name: microbe, parasite or virus in culture
# Format: cell-based
# measurement.conditions: Chikungunya virus, Vero, 48 h, read-out: Percent viral inhibition CHKV
Decide by inhibition at 1 µM: equal to or exceeding 20% means T, less means F.

See these solved cases before continuing.
CN1C[C@@H]2C[C@H]1CN2c1ncc(Oc2cc(CN3CCC(CC(=O)O)CC3)cc(-c3cc(Cl)cc(Cl)c3)n2)cn1 [Example 231] : T
CNC(=O)NCC1CCN(Cc2cc(Oc3cnc(N4CCN(C[C@@H](C)O)CC4)nc3)nc(-c3cc(Cl)cc(Cl)c3)c2)CC1 [Example 310] : F

Hi, just wondering whether CN1CCN(c2ncc(Oc3cc(CN4CCC(CP(C)(C)=O)CC4)cc(-c4cc(Cl)cc(Cl)c4)n3)cn2)CC1 [Example 320] shows inhibition at 1 µM of 20% or higher. F

Quick check, inhibition at 1 µM >= 20%? CNC(=O)NCC1CCN(Cc2cc(Oc3cnc(N4CCN(C)CC4)nc3)nc(-c3cc(Cl)cc(Cl)c3)c2)CC1 [Example 70] F

Quick check, inhibition at 1 µM >= 20%? CC(=O)NCC1CCN(Cc2cc(Oc3ccc(N4CCN(CCC(=O)O)C(C)(C)C4)nc3)nc(-c3cc(Cl)cc(Cl)c3)c2)CC1 [Example 191] F

Could you tell me if the measured inhibition at 1 µM of FC1CCN(Cc2cc(Oc3cnc(N4CCN5CCC4C5)nc3)nc(-c3cc(Cl)cc(Cl)c3)c2)CC1 (centres unmarked) [Example 338] reaches 20% or more? F

Does the reported inhibition at 1 µM for CC(=O)NCC1CCN(Cc2cc(Oc3cnc(N4CCN(CCC(=O)O)CC4)nc3)nc(-c3cc(Cl)cc(Cl)c3)c2)CC1 [Example 263] fall at or above the 20% mark? T

Entry CC(CCO)N1CCN(c2ncc(Oc3cc(CN4CCC(CC(=O)O)CC4)cc(-c4cc(Cl)cc(Cl)c4)n3)cn2)CC1 (centres unmarked) [Example 238] : is its inhibition at 1 µM no less than 20%? T

Record CN1CCN(c2ncc(Oc3cc(CN4CCC(CC(=O)O)CC4)cc(-c4cc(Cl)cc(Cl)c4)n3)cn2)CC(C)(O)C1 (centres unmarked) [Example 146] ; criterion: inhibition at 1 µM no lower than 20%. Met? T

Textbook exercise: given the entry CNC(=O)CN1CCN(Cc2cc(Oc3ccc(N4CCNCC4)nc3)nc(-c3cc(Cl)cc(Cl)c3)c2)CC1 [Example 1] , state whether its inhibition at 1 µM is greater than or equal to 20%. F

Reported inhibition at 1 µM at or above 20%? CC(=O)NCC1CCN(Cc2cc(Oc3ccc(N4CC[N+](CCO)(CCO)CC4)nc3)nc(-c3cc(Cl)cc(Cl)c3)c2)CC1 [Example 179] F

For this molecule, is measured inhibition at 1 µM 20% or higher? CNC(=O)OCC1CCN(Cc2cc(Oc3cnc(N4CCN(CCC(=O)O)CC4)nc3)nc(-c3cc(Cl)cc(Cl)c3)c2)CC1 [Example 248] T

API: above_or_equal(metric=inhibition at 1 µM, cutoff=20%) for item CNC(=O)NCC1CCN(Cc2cc(Oc3cnc(N4CCN(CCC(=O)O)CC4)c(F)c3)nc(-c3cc(Cl)cc(Cl)c3)c2)CC1 [Example 270] T

Textbook exercise: given the entry CS(=O)(=O)CC1CCN(Cc2cc(Oc3ccc(N4CCN(CCC(=O)O)CC4)nc3)nc(-c3cc(Cl)cc(Cl)c3)c2)CC1 [Example 39] , state whether its inhibition at 1 µM is greater than or equal to 20%. T

Answer whether inhibition at 1 µM of CCN1CCN(c2ncc(Oc3cc(CN4CCC(CC(=O)O)CC4)cc(-c4cc(Cl)cc(Cl)c4)n3)cn2)CC1 [Example 234] is greater than or equal to 20%. T

Answer whether inhibition at 1 µM of CN1CCN(c2ncc(Oc3cc(CN4CCC(OCC(=O)O)CC4)cc(-c4cc(Cl)cc(Cl)c4)n3)cn2)CC1 [Example 53] is greater than or equal to 20%. T

Given CN1CCN(c2ncc(Oc3cc(CN4CCC(NC(N)=O)CC4)cc(-c4cc(Cl)cc(Cl)c4)n3)cn2)CC1 [Example 329] , state whether its inhibition at 1 µM is at least 20%. T

Reported inhibition at 1 µM reaches at least 20% for CN1CCN(c2ncc(Oc3cc(CN4CCC(CC(=O)O)CC4)cc(-c4cc(Cl)cc(Cl)c4)c3)cn2)CC1 [Example 117] ? F

Entry CC(C)N1CCN(c2cnc(Oc3cc(CN4CCC(CC(=O)O)CC4)cc(-c4cc(Cl)cc(Cl)c4)n3)cn2)CC1 [Example 347] : is its inhibition at 1 µM no less than 20%? T
